assay.system: OXE receptor (Homo sapiens, UniProt Q8TDS5)
Sequence (Q8TDS5 whole entry): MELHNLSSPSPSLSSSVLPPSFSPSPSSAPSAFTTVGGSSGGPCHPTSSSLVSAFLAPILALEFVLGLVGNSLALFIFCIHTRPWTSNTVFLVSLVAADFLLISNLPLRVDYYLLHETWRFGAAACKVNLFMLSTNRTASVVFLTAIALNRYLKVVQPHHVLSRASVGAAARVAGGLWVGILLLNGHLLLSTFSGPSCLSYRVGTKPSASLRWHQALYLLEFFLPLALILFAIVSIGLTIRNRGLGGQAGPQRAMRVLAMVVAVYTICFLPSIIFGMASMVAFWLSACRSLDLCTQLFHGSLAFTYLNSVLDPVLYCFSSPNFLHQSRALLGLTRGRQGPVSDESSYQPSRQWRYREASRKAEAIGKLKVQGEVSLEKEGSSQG
outcome.measure: IC50 (nM)
Answers are plain numbers, in nM.

Q: Which value of IC50 has been reported for CCCCCCc1cc2ccc(Cl)cc2n1C(=O)CCCC(=O)O in the records?
A: 400

The values you see were collected from paper PMC3800034.
